assay: chemical genetic growth profiling, strain panel (AID 1159580);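 note: tested at 20 µM; growth read once vehicle control cultures reached saturation at 30 °C; 1 = growth at the plate median or of vehicle wells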; conditions: S. cerevisiae deletion strains, growth OD, locus YJR066W, strain TOR1, stronger effect = lower value
Hit rate of the full screen: of about 5,500 compounds, about 2,000 (36%) were called active. Inconclusive results (about 18%) are left out. Some of the results follow.
PROPERTY NAME: normalized growth
Give bare numbers.

- CC1(C)OC(=O)NC1=O: 0.957

Below are 3 compounds. Give each one its normalized growth.
1. CC(=O)N[C@@H](CC(C)C)C(=O)O
2. CCCCCCCCNC(C)C(O)c1ccc(SC(C)C)cc1 (centres undefined)
3. CNC(C)[C@H](O)c1ccccc1 (some centres undefined)

Response:
1. 1.02
2. 0.885
3. 0.972

###

test: chemical genetic growth profiling, strain panel (AID 1159580);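 note: tested at 20 µM; growth read once vehicle control cultures reached saturation at 30 °C; 1 = growth at the plate median or of vehicle wells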; conditions: S. cerevisiae deletion strains, growth OD, locus YCL061C, strain MRC1
Out of some 5,500 compounds screened, about 2,000 (36%) were called active. Roughly 18% stayed inconclusive and do not appear here. No stated cut-off is given here; in the data, active means normalized growth mostly below about 0.91 (no sharp cut-off); inconclusive means no clear call, values can overlap the other calls; inactive means mostly above about 0.92. Some of the results follow.
Result category, one only: active, inactive

Examples from the recorded data:
• CCOc1ccc(/C=C(\C#N)c2cccc(Cl)c2)cc1 = inactive
• COc1ccc2c(C)cc(=O)oc2c1 = inactive
• COc1ccc2cc([C@H](C)CO)ccc2c1 = inactive
• c1cncc(C2CCCCN2)c1 (stereo not drawn) = inactive
• NC(=O)c1ccc[n+]([C@@H]2O[C@H](COP(=O)([O-])OP(=O)(O)OC[C@H]3O[C@@H](n4cnc5c(N)ncnc54)[C@H](O)[C@@H]3O)[C@@H](O)[C@H]2O)c1 = inactive
• CC(C)(C)c1ccc(-c2nc(-c3cc(C(C)(C)C)c(O)c(C(C)(C)C)c3)cs2)cc1 = inactive

Prompt: Could you please tell me the result logged for CC(C(=O)O)c1ccc(-c2ccccc2)c(F)c1 (stereo not drawn) in this assay?
Response: inactive

Prompt: Could you please tell me the result logged for c1ccc(N=Nc2ccc(Nc3ccccc3)cc2)cc1 in this assay?
Response: active

Prompt: Could you please tell me the result logged for COc1ccc2cc([C@H](C)C(=O)O)ccc2c1 in this assay?
Response: inactive

Prompt: Could you please tell me the result logged for CC(C)(C)c1cc(-c2csc(-c3ccc(Cl)cc3)n2)cc(C(C)(C)C)c1O in this assay?
Response: inactive

Prompt: Could you please tell me the result logged for CC12CCC3C(CCC4=CC(=O)CCC43CO)C1CCC2OC(=O)c1ccccc1 (stereo not drawn) in this assay?
Response: inactive

Prompt: Could you please tell me the result logged for CN(C)C(=S)SSC(=S)N(C)C in this assay?
Response: active

###

assay: chemical genetic growth profiling, strain panel (AID 1159580);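 note: tested at 20 µM; growth read once vehicle control cultures reached saturation at 30 °C; 1 = growth at the plate median or of vehicle wells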; conditions: S. cerevisiae deletion strains, growth OD, locus YGR229C, strain SMI1
In all, about 5,500 compounds went through this assay and about 2,000 (36%) were called active. Not shown: some 18% with an inconclusive outcome. No stated cut-off is given here; in the data, active means normalized growth mostly below about 0.91 (no sharp cut-off); inconclusive means no clear call, values can overlap the other calls; inactive means mostly above about 0.92. This is one part of the list.
Result category, one only: T = active, F = inactive

Examples from the recorded data:
* COc1cc2c(cc1OC)C1C(=O)c3c(cc4c(c3O)C=CC(C)(C)O4)OC1CO2 (stereo not drawn) | T
* CCO/C=C1\SC(=S)N(CCc2ccccc2)C1=O | T
* O=C(O)c1nn(Cc2ccc(Cl)cc2Cl)c2ccccc12 | F
* COc1cc2c(cc1OC)[C@@H]1C(=O)c3ccc(O)c(CC=C(C)C)c3O[C@@H]1CO2 | F
* COc1cc2c(cc1OC)[C@@H]1C(=O)c3ccc4c(c3O[C@@H]1CO2)C=CC(C)(C)O4 | F

Prompt: Could you please tell me the result logged for CC1=C(CC(=O)O)c2cc(F)ccc2/C1=C\c1ccc(S(C)(=O)=O)cc1 in this assay?
Response: F

Prompt: Could you please tell me the result logged for CC1=C(CC(=O)O)c2cc(F)ccc2/C1=C\c1ccc(S(C)=O)cc1 (stereo not drawn) in this assay?
Response: F

Prompt: Could you please tell me the result logged for OCc1ccc(-c2nn(Cc3ccccc3)c3ccccc23)o1 in this assay?
Response: T
